All values here come from PubChem BioAssay AID489008.

# target.or.system: Ferritin light chain (Equus caballus) (UniProt P02791)
# Sequence (P02791 2-175 limits assumed): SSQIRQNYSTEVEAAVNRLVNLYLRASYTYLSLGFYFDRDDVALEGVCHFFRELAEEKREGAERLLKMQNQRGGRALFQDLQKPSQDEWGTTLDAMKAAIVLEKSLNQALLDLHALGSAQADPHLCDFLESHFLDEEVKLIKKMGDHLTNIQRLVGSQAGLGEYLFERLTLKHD
# experiment.summary: Confirmation Assay for Identification of Novel General Anesthetics; further: potency means the concentration at half of the fitted maximal effect; nearly all actives have a fitted effect of over 40% in size
# test.settings: apoferritin 1-aminoanthracene fluorescence displacement
Results filed as inconclusive are left out. Calls of active or inactive are those of the source. The call rests on the fitted dose curve; in most records, active means well fitted inhibition curve with a large enough effect; inconclusive means small, poorly fitted or top-dose-only effect; inactive means flat fitted curve, though single readings scatter.

molecule	Potency
O=C1c2ccsc2SCCN1Cc1ccc(Cl)cc1Cl	15.8 µM (active)
O=C1C2CC=CCC2C(=O)N1Cc1ccccc1Cl (configuration not stated)	7.94 µM (active)
O=C(Nc1ccc(Br)cc1)N1CCCCCC1	25.1 µM (active)
Cc1ccc(NS(=O)(=O)N2CCOCC2)cc1Cl	12.6 µM (active)
Fc1cnc(Cl)nc1NC1CCCCC1	12.6 µM (active)
O=C(OCC(=O)C12CC3CC(CC(C3)C1)C2)c1cccnc1	22.4 µM (active)
Cc1cc(C(F)(F)F)n(-c2ccc(N)cc2)n1	17.8 µM (active)
Nc1ccc(CSc2ccc(Cl)cc2)cc1	15.8 µM (active)
O=C1c2ccsc2SCCN1Cc1ccccc1Cl	14.1 µM (active)
Nc1ccccc1Oc1ccc2ccccc2c1	11.2 µM (active)
Cc1csc(Nc2ccccc2)n1	35.5 µM (active)
CCCCSC(=O)Nc1ccccc1	7.08 µM (active)
Cc1ccc(NC(C)c2cc(Cl)ccc2O)cc1 (configuration not stated)	17.8 µM (active)
CC1CCCCC1NC(=O)COC(=O)c1ccc(N(C)C)cc1 (configuration not stated)	11.2 µM (active)
CC1Cc2ccccc2N1C(=O)CSC1=NCCS1 (configuration not stated)	10 µM (active)
O=C(COC(=O)/C=C/c1ccccc1Cl)NC1CCCCCC1	6.31 µM (active)
CN(CC(=O)Nc1ccccc1Cl)C1CCCCC1	15.8 µM (active)
